A collection of molecules and their measured IC50
# Protocol description: Inhibition of collagen prolyl 4-hydroxylase (unknown origin) using 2-ketoglutarate as co-factor assessed as formation of [14C]succinate by ion-exchnage chromatographic method
# Set-up: species or system Homo sapiens

- Molecule: "O=C(O)CNC(=O)C(=O)O [N-OXALYLGLYCINE]"
  IC50 / µM: 2.89
- Molecule: "C[C@H](NC(=O)C(=O)O)C(=O)O"
  IC50 / µM: 38.2
- Molecule: "CC(NC(=O)C(=O)O)C(=O)O (racemic)"
  IC50 / µM: 90.7
- Molecule: "C[C@@H](NC(=O)C(=O)O)C(=O)O"
  IC50 / µM: 621

###

Parameter IC50: see the listing below.
# Protocol description: Inhibition of collagen prolyl 4-hydroxylase (unknown origin)
# Parameters: species or system Homo sapiens
Readout kind: IC50 (µM)

- Structure string: "O=C(O)c1ccc(C(=O)O)nc1"
  Reading: 5.5
- Structure string: "COc1ccc(S(=O)(=O)NC(=O)c2ccc(C(=O)O)nc2)cc1"
  Reading: 1

The measured values listed here are drawn from ChEMBL document CHEMBL4270540.
